Parameter pIC50: see the listing below.
target: EGFR (Homo sapiens, UniProt P00533)
Sequence (P00533 25-1210): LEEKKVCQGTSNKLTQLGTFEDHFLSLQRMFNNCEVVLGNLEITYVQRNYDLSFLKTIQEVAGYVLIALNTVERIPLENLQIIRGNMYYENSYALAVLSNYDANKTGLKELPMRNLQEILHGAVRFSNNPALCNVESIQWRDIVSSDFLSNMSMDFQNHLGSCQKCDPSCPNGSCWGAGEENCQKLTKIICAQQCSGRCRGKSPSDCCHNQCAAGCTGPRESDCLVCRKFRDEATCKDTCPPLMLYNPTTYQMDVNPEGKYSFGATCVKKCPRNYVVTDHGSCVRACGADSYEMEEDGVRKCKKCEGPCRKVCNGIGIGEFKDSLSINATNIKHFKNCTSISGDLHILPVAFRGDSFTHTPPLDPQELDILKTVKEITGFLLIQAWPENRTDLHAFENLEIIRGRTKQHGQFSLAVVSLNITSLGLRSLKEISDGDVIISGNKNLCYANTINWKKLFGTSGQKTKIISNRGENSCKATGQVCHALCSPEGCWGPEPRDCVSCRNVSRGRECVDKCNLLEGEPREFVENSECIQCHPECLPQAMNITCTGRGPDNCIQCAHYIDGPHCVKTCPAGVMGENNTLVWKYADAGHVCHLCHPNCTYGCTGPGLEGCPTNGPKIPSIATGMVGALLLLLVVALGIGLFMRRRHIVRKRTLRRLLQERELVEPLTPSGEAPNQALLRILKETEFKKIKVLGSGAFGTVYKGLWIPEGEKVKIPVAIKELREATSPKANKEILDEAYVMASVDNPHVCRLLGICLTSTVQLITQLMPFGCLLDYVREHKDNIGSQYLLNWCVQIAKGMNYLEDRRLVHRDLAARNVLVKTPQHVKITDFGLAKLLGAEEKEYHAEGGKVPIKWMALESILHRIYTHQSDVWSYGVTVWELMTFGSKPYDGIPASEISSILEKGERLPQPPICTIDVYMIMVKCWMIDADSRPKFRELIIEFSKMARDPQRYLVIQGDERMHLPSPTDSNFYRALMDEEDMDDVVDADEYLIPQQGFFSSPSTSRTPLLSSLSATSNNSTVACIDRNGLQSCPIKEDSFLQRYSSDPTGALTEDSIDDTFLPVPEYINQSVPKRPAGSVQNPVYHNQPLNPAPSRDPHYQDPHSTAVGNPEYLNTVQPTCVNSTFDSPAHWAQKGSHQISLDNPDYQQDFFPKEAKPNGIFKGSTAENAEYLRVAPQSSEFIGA
pIC50: −log10 of the molar value.

{"columns": ["cpd smiles", "pIC50"],
 "data": [
  ["COc1ccc(-n2c(SCC(=O)NNC(=O)Nc3ccccc3)nc3ccccc3c2=O)cc1", 6.44],
  ["Cc1ccc(-n2c(SCC(=O)NNC(=O)Nc3ccccc3)nc3ccccc3c2=O)cc1", 7.31],
  ["Cc1ccc(-n2c(SCC(=O)NNC(=O)NCc3ccccc3)nc3ccccc3c2=O)cc1", 6.93]
]}

----------
system: MCF-7 breast cancer cells; experiment: MTT in vitro anti-tumor screening; type: cell-based, human; conditions: read-out: IC50 MCF-7, mean of three independent experiments ± SD

{"columns": ["cpd smiles", "readout units", "IC50"],
 "data": [
  ["O=C(CSc1nc2ccccc2c(=O)n1-c1ccc(Cl)cc1)NNC(=O)Nc1ccccc1", "µM", 12.9]
]}
